- Tested on: broilers
- TEST_METHOD_NOTES: Effects of the series of salts of isopropoxy-phenylguanidine on production performance of broilers
- Assay type: in vivo
- CONDITION_CONTEXT: 1-day-old broilers, 50 ppm in feed, 30 days
Parameter Average feed conversion ratio: see the listing below.
REPORTED_ENDPOINT: Average feed conversion ratio

{"columns": ["COMPOUND", "REPORTED_ENDPOINT", "EXPERIMENTAL_RESULT"],
 "data": [
  ["CC(C)Oc1ccc(C=NNC(=N)NN=Cc2ccc(OC(C)C)cc2)cc1.Cl [isopropoxy-phenylguanidine hydrochloride, reference compound]", "Average feed conversion ratio", 2.087],
  ["CC(C)Oc1ccc(C=NNC(=N)NN=Cc2ccc(OC(C)C)cc2)cc1.O=S(=O)(O)O [isopropoxy-phenylguanidine sulfate]", "Average feed conversion ratio", 2.131],
  ["CC(C)Oc1ccc(C=NNC(=N)NN=Cc2ccc(OC(C)C)cc2)cc1.O=C(O)CC(O)(CC(=O)O)C(=O)O [isopropoxy-phenylguanidine citrate]", "Average feed conversion ratio", 2.125],
  ["CC(C)Oc1ccc(C=NNC(=N)NN=Cc2ccc(OC(C)C)cc2)cc1.O=C(O)c1ccccc1 [isopropoxy-phenylguanidine benzoate]", "Average feed conversion ratio", 2.126],
  ["CC(C)Oc1ccc(C=NNC(=N)NN=Cc2ccc(OC(C)C)cc2)cc1.O=C(O)CCC(=O)O [isopropoxy-phenylguanidine succinate]", "Average feed conversion ratio", 2.143],
  ["CC(C)Oc1ccc(C=NNC(=N)NN=Cc2ccc(OC(C)C)cc2)cc1.CS(=O)(=O)O", "Average feed conversion ratio", 1.999],
  ["CC(C)Oc1ccc(C=NNC(=N)NN=Cc2ccc(OC(C)C)cc2)cc1.O=S(=O)(O)CCO", "Average feed conversion ratio", 1.987],
  ["CC(=O)O.CC(C)Oc1ccc(C=NNC(=N)NN=Cc2ccc(OC(C)C)cc2)cc1 [isopropoxy-phenylguanidine acetate]", "Average feed conversion ratio", 2.129],
  ["CC(C)Oc1ccc(C=NNC(=N)NN=Cc2ccc(OC(C)C)cc2)cc1.O=C(O)/C=C\\C(=O)O [isopropoxy-phenylguanidine maleate]", "Average feed conversion ratio", 2.137],
  ["CC(C)Oc1ccc(C=NNC(=N)NN=Cc2ccc(OC(C)C)cc2)cc1.O=C(O)/C=C/C(=O)O [isopropoxy-phenylguanidine fumarate]", "Average feed conversion ratio", 2.136],
  ["CC(C)Oc1ccc(C=NNC(=N)NN=Cc2ccc(OC(C)C)cc2)cc1.O=C(O)C(=O)O [isopropoxy-phenylguanidine oxalate]", "Average feed conversion ratio", 2.145],
  ["CC(C)Oc1ccc(C=NNC(=N)NN=Cc2ccc(OC(C)C)cc2)cc1.CC(O)C(=O)O [isopropoxy-phenylguanidine lactate]", "Average feed conversion ratio", 2.006],
  ["CC(C)Oc1ccc(C=NNC(=N)NN=Cc2ccc(OC(C)C)cc2)cc1.O=C(O)C(O)C(O)C(=O)O [isopropoxy-phenylguanidine tartrate]", "Average feed conversion ratio", 2.131],
  ["CC(C)Oc1ccc(C=NNC(=N)NN=Cc2ccc(OC(C)C)cc2)cc1.O=P(O)(O)O [isopropoxy-phenylguanidine phosphate]", "Average feed conversion ratio", 2.139]
]}

====

- System: Duroc×Landrace×Large White piglets
- TEST_METHOD_NOTES: Effects of the salts of isopropoxy-phenylguanidine in a feed for pigs
- Format: in vivo
- CONDITION_CONTEXT: piglets aged 28 days, 100 ppm in feed

{"columns": ["COMPOUND", "Feed conversion ratio"],
 "data": [
  ["CC(C)Oc1ccc(C=NNC(=N)NN=Cc2ccc(OC(C)C)cc2)cc1.CS(=O)(=O)O", 1.713],
  ["CC(C)Oc1ccc(C=NNC(=N)NN=Cc2ccc(OC(C)C)cc2)cc1.O=C(O)CC(O)(CC(=O)O)C(=O)O [isopropoxy-phenylguanidine citrate]", 1.803],
  ["CC(C)Oc1ccc(C=NNC(=N)NN=Cc2ccc(OC(C)C)cc2)cc1.CC(O)C(=O)O [isopropoxy-phenylguanidine lactate]", 1.701],
  ["CC(C)Oc1ccc(C=NNC(=N)NN=Cc2ccc(OC(C)C)cc2)cc1.Cl [isopropoxy-phenylguanidine hydrochloride, reference compound]", 1.754],
  ["CC(C)Oc1ccc(C=NNC(=N)NN=Cc2ccc(OC(C)C)cc2)cc1.O=S(=O)(O)CCO", 1.697]
]}

====

Listed next: entries and their corresponding Survival rate (%).
- Tested on: broilers
- TEST_METHOD_NOTES: Effects of the series of salts of isopropoxy-phenylguanidine on production performance of broilers
- Type: in vivo
- CONDITION_CONTEXT: 1-day-old broilers, 50 ppm in feed, 30 days

{"columns": ["COMPOUND", "Survival rate (%)"],
 "data": [
  ["CC(C)Oc1ccc(C=NNC(=N)NN=Cc2ccc(OC(C)C)cc2)cc1.O=C(O)/C=C\\C(=O)O [isopropoxy-phenylguanidine maleate]", "100%"],
  ["CC(C)Oc1ccc(C=NNC(=N)NN=Cc2ccc(OC(C)C)cc2)cc1.Cl [isopropoxy-phenylguanidine hydrochloride, reference compound]", "100%"],
  ["CC(C)Oc1ccc(C=NNC(=N)NN=Cc2ccc(OC(C)C)cc2)cc1.O=C(O)C(=O)O [isopropoxy-phenylguanidine oxalate]", "100%"],
  ["CC(C)Oc1ccc(C=NNC(=N)NN=Cc2ccc(OC(C)C)cc2)cc1.O=S(=O)(O)O [isopropoxy-phenylguanidine sulfate]", "100%"],
  ["CC(C)Oc1ccc(C=NNC(=N)NN=Cc2ccc(OC(C)C)cc2)cc1.O=C(O)CC(O)(CC(=O)O)C(=O)O [isopropoxy-phenylguanidine citrate]", "100%"],
  ["CC(C)Oc1ccc(C=NNC(=N)NN=Cc2ccc(OC(C)C)cc2)cc1.O=C(O)C(O)C(O)C(=O)O [isopropoxy-phenylguanidine tartrate]", "98%"],
  ["CC(C)Oc1ccc(C=NNC(=N)NN=Cc2ccc(OC(C)C)cc2)cc1.O=S(=O)(O)CCO", "100%"],
  ["CC(C)Oc1ccc(C=NNC(=N)NN=Cc2ccc(OC(C)C)cc2)cc1.CS(=O)(=O)O", "100%"],
  ["CC(=O)O.CC(C)Oc1ccc(C=NNC(=N)NN=Cc2ccc(OC(C)C)cc2)cc1 [isopropoxy-phenylguanidine acetate]", "99%"],
  ["CC(C)Oc1ccc(C=NNC(=N)NN=Cc2ccc(OC(C)C)cc2)cc1.O=C(O)c1ccccc1 [isopropoxy-phenylguanidine benzoate]", "100%"],
  ["CC(C)Oc1ccc(C=NNC(=N)NN=Cc2ccc(OC(C)C)cc2)cc1.O=P(O)(O)O [isopropoxy-phenylguanidine phosphate]", "100%"],
  ["CC(C)Oc1ccc(C=NNC(=N)NN=Cc2ccc(OC(C)C)cc2)cc1.CC(O)C(=O)O [isopropoxy-phenylguanidine lactate]", "100%"],
  ["CC(C)Oc1ccc(C=NNC(=N)NN=Cc2ccc(OC(C)C)cc2)cc1.O=C(O)CCC(=O)O [isopropoxy-phenylguanidine succinate]", "100%"],
  ["CC(C)Oc1ccc(C=NNC(=N)NN=Cc2ccc(OC(C)C)cc2)cc1.O=C(O)/C=C/C(=O)O [isopropoxy-phenylguanidine fumarate]", "99%"]
]}

====

- Test system: broilers
- TEST_METHOD_NOTES: Effects of the series of salts of isopropoxy-phenylguanidine on production performance of broilers
- Type: in vivo
- CONDITION_CONTEXT: 1-day-old broilers, 50 ppm in feed, 30 days
REPORTED_ENDPOINT: Average daily weight gain (g)

{"columns": ["COMPOUND", "MEASUREMENT_UNIT", "EXPERIMENTAL_RESULT"],
 "data": [
  ["CC(C)Oc1ccc(C=NNC(=N)NN=Cc2ccc(OC(C)C)cc2)cc1.O=C(O)C(O)C(O)C(=O)O [isopropoxy-phenylguanidine tartrate]", "g", 43.9],
  ["CC(C)Oc1ccc(C=NNC(=N)NN=Cc2ccc(OC(C)C)cc2)cc1.O=C(O)c1ccccc1 [isopropoxy-phenylguanidine benzoate]", "g", 44.7],
  ["CC(C)Oc1ccc(C=NNC(=N)NN=Cc2ccc(OC(C)C)cc2)cc1.O=C(O)/C=C\\C(=O)O [isopropoxy-phenylguanidine maleate]", "g", 44.1],
  ["CC(C)Oc1ccc(C=NNC(=N)NN=Cc2ccc(OC(C)C)cc2)cc1.CC(O)C(=O)O [isopropoxy-phenylguanidine lactate]", "g", 47.9],
  ["CC(C)Oc1ccc(C=NNC(=N)NN=Cc2ccc(OC(C)C)cc2)cc1.O=S(=O)(O)CCO", "g", 49.1],
  ["CC(C)Oc1ccc(C=NNC(=N)NN=Cc2ccc(OC(C)C)cc2)cc1.O=P(O)(O)O [isopropoxy-phenylguanidine phosphate]", "g", 44.0],
  ["CC(C)Oc1ccc(C=NNC(=N)NN=Cc2ccc(OC(C)C)cc2)cc1.O=C(O)/C=C/C(=O)O [isopropoxy-phenylguanidine fumarate]", "g", 44.1],
  ["CC(=O)O.CC(C)Oc1ccc(C=NNC(=N)NN=Cc2ccc(OC(C)C)cc2)cc1 [isopropoxy-phenylguanidine acetate]", "g", 43.2],
  ["CC(C)Oc1ccc(C=NNC(=N)NN=Cc2ccc(OC(C)C)cc2)cc1.O=C(O)C(=O)O [isopropoxy-phenylguanidine oxalate]", "g", 43.1],
  ["CC(C)Oc1ccc(C=NNC(=N)NN=Cc2ccc(OC(C)C)cc2)cc1.CS(=O)(=O)O", "g", 48.8],
  ["CC(C)Oc1ccc(C=NNC(=N)NN=Cc2ccc(OC(C)C)cc2)cc1.O=S(=O)(O)O [isopropoxy-phenylguanidine sulfate]", "g", 43.7],
  ["CC(C)Oc1ccc(C=NNC(=N)NN=Cc2ccc(OC(C)C)cc2)cc1.Cl [isopropoxy-phenylguanidine hydrochloride, reference compound]", "g", 46.6],
  ["CC(C)Oc1ccc(C=NNC(=N)NN=Cc2ccc(OC(C)C)cc2)cc1.O=C(O)CCC(=O)O [isopropoxy-phenylguanidine succinate]", "g", 43.6],
  ["CC(C)Oc1ccc(C=NNC(=N)NN=Cc2ccc(OC(C)C)cc2)cc1.O=C(O)CC(O)(CC(=O)O)C(=O)O [isopropoxy-phenylguanidine citrate]", "g", 44.5]
]}

Hello, the source for this data is patent US20170342026A1, in case you need it.
